Biological target: PSMA (Homo sapiens, UniProt Q04609)
Construct: host or cells: 22Rv1 human prostate cancer cells
Sequence (Q04609 whole entry): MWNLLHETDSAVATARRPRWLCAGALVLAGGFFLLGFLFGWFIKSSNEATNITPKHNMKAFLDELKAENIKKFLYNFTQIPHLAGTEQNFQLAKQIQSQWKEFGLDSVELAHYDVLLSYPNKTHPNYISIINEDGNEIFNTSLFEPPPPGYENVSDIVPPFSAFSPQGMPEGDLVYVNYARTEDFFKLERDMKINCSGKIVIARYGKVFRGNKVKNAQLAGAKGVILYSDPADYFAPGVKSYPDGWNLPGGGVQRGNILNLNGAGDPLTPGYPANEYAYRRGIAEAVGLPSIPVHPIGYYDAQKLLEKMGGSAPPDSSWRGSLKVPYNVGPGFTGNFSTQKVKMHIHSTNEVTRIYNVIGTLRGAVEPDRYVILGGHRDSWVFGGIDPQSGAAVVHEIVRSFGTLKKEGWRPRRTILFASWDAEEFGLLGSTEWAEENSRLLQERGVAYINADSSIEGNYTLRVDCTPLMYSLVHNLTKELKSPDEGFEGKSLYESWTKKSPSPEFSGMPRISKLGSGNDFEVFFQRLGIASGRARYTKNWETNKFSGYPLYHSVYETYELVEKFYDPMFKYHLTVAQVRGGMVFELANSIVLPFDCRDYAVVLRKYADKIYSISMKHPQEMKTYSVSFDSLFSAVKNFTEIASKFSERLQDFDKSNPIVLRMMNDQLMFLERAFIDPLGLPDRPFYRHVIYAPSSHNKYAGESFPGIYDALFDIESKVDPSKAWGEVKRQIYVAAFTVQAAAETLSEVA
Assay: Relative binding affinity of DUPA-NIR conjugates with respect to DUPA-FITC on 22Rv1 cells, flow cytometry
Conditions: conjugates with aromatic linkers, 1 h at 37° C., 100 nM DUPA-FITC
Experimental endpoint: pKd
Reminder that pKd is minus the log10 of a molar concentration.

Record excerpt, results attached:
Smiles notation	Experimental endpoint	Assay value
CC1(C)C(/C=C/C2=C(SC[C@H](NC(=O)[C@H](Cc3ccccc3)NC(=O)CCCCCCCNC(=O)CC[C@H](NC(=O)N[C@@H](CCC(=O)O)C(=O)O)C(=O)O)C(=O)O)C(=C/C=C3/N(CCCCS(=O)(=O)O)c4ccc(S(=O)(=O)O)cc4C3(C)C)/CCC2)=[N+](CCCCS(=O)(=O)[O-])c2ccc(S(=O)(=O)O)cc21	pKd	8.20
CC1(C)C(/C=C/C2=C(Oc3ccc(C[C@H](NC(=O)[C@H](Cc4ccccc4)NC(=O)[C@H](Cc4ccccc4)NC(=O)CCCCCCCNC(=O)CC[C@H](NC(=O)N[C@@H](CCC(=O)O)C(=O)O)C(=O)O)C(=O)O)cc3)C(=C/C=C3/N(CCCCS(=O)(=O)O)c4ccc(S(=O)(=O)O)cc4C3(C)C)/CCC2)=[N+](CCCCS(=O)(=O)[O-])c2ccc(S(=O)(=O)O)cc21	pKd	8.12
CC1(C)C(/C=C/C2=C(Oc3ccc(C[C@H](NC(=O)[C@H](Cc4c[nH]c5ccccc45)NC(=O)CCCCCCCNC(=O)CC[C@H](NC(=O)N[C@@H](CCC(=O)O)C(=O)O)C(=O)O)C(=O)O)cc3)C(=C/C=C3/N(CCCCS(=O)(=O)O)c4ccc(S(=O)(=O)O)cc4C3(C)C)/CCC2)=[N+](CCCCS(=O)(=O)[O-])c2ccc(S(=O)(=O)O)cc21	pKd	7.80
CC1(C)C(/C=C/C2=C(Oc3ccc(C[C@H](NC(=O)CCCCCCCNC(=O)[C@H](Cc4ccccc4)NC(=O)[C@H](Cc4ccccc4)NC(=O)CCCCCCCNC(=O)CC[C@H](NC(=O)N[C@@H](CCC(=O)O)C(=O)O)C(=O)O)C(=O)O)cc3)C(=C/C=C3/N(CCCCS(=O)(=O)O)c4ccc(S(=O)(=O)O)cc4C3(C)C)/CCC2)=[N+](CCCCS(=O)(=O)[O-])c2ccc(S(=O)(=O)O)cc21	pKd	7.46
CC1(C)C(/C=C/C2=C(Oc3ccc(C[C@H](NC(=O)[C@H](Cc4c[nH]cn4)NC(=O)CCCCCCCNC(=O)CC[C@H](NC(=O)N[C@@H](CCC(=O)O)C(=O)O)C(=O)O)C(=O)O)cc3)C(=C/C=C3/N(CCCCS(=O)(=O)O)c4ccc(S(=O)(=O)O)cc4C3(C)C)/CCC2)=[N+](CCCCS(=O)(=O)[O-])c2ccc(S(=O)(=O)O)cc21	pKd	7.49
CC1(C)C(/C=C/C2=C(Oc3ccc(C[C@H](NC(=O)[C@H](Cc4ccccc4)NC(=O)CCOCCOCCNC(=O)CC[C@H](NC(=O)N[C@@H](CCC(=O)O)C(=O)O)C(=O)O)C(=O)O)cc3)C(=C/C=C3/N(CCCCS(=O)(=O)O)c4ccc(S(=O)(=O)O)cc4C3(C)C)/CCC2)=[N+](CCCCS(=O)(=O)[O-])c2ccc(S(=O)(=O)O)cc21	pKd	7.62

Next molecule, please.
# molecule `CC1(C)C(/C=C/C2=C(SC[C@H](NC(=O)[C@H](Cc3ccccc3)NC(=O)[C@H](Cc3ccccc3)NC(=O)CCCCCCCNC(=O)CC[C@H](NC(=O)N[C@@H](CCC(=O)O)C(=O)O)C(=O)O)C(=O)O)C(=C/C=C3/N(CCCCS(=O)(=O)O)c4ccc(S(=O)(=O)O)cc4C3(C)C)/CCC2)=[N+](CCCCS(=O)(=O)[O-])c2ccc(S(=O)(=O)O)cc21` ; its pKd = 7.65
